Every entry's value here was drawn from patent US10039283B2.

Entries and their measured LogP follow.
assay: Log P by HPLC on reversed phase, method [a], acidic range (0.1% formic acid); assay type: physicochemical; details: LC-UV, 0.1% formic acid in water and acetonitrile

Worked examples follow.
> print(dat)
                              sample.smiles  measurement.name    result
1  O=C(Nc1cnn(-c2cc(Cl)cc(Cl)c2)c1Cl)c1cccnc1C(F)F              LogP  3.19^[a]
2  O=C(Nc1cnn(-c2ccc(C(F)(F)F)cc2)c1Cl)c1cccnc1C(F)F              LogP  2.81^[a]
3  CCc1c(NC(=O)c2cc(C)cnc2C(F)F)cnn1-c1ccc(Cl)cc1              LogP  2.73^[a]
4  Cc1ccc(-n2ncc(NC(=O)c3cccnc3C(F)F)c2C(F)(F)F)cc1              LogP  2.86^[a]
5  O=C(Nc1cnn(-c2ccc(Cl)cc2Cl)c1C(F)(F)F)c1ccc(Cl)nc1C(F)F              LogP  3.85^[a]
6  CCOc1ccc(-n2ncc(NC(=O)c3cccnc3C(F)F)c2C(F)(F)F)cc1              LogP  2.88^[a]

Enquiry: // lookup LogP for O=C(Nc1cnn(-c2cccc(Cl)c2)c1C(F)(F)F)c1cccnc1C(F)F
Return: 3.00^[a]

----------
Entries and their measured LogP follow.
assay: Log P by HPLC on reversed phase, method [a], acidic range (0.1% formic acid); type: physicochemical; details: LC-UV, 0.1% formic acid in water and acetonitrile

Worked examples follow.
> print(dat)
                                   compound    result
1  COc1ccc(-n2ncc(NC(=O)c3cccnc3C(F)F)c2Cl)cc1 [Example 189]  2.09^[a]
2  O=C(Nc1cnn(-c2ccccc2Cl)c1Cl)c1cccnc1C(F)F [Example 191]  2.17^[a]
3  O=C(Nc1cnn(-c2c(Cl)cccc2Cl)c1C(F)(F)F)c1ccc(Cl)nc1C(F)F [Example 160]  3.53^[a]
4  Cc1ncccc1C(=O)Nc1cnn(-c2ccc(Cl)cc2)c1C(F)(F)F [Example 237]  2.12^[a]
5  Cc1ccc(Oc2ccc(-n3ncc(NC(=O)c4cccnc4C(F)F)c3C(F)(F)F)cc2)cc1 [Example 245]  4.03^[a]
6  O=C(Nc1cnn(-c2ccc(Cl)cc2)c1-c1cccc(F)c1)c1cccnc1C(F)F [Example 197]  3.07^[a]

Enquiry: // lookup LogP for O=C(Nc1cnn(-c2cccc(F)c2)c1-c1cccc(Cl)c1)c1cccnc1C(F)F [Example 58]
Return: 2.98^[a]

Enquiry: // lookup LogP for O=C(Nc1cnn(-c2ccc(Cl)c(Cl)c2)c1C(F)(F)F)c1ccc(Cl)nc1C(F)F [Example 180]
Return: 4.11^[a]

Enquiry: // lookup LogP for O=C(Nc1cnn(-c2ccc(F)cc2)c1C(F)F)c1cccnc1C(F)F [Example 32]
Return: 2.20^[a]

Enquiry: // lookup LogP for O=C(Nc1cnn(-c2cccc(Cl)c2)c1C(F)F)c1cccnc1C(F)F [Example 24]
Return: 2.69^[a]

Enquiry: // lookup LogP for O=C(Nc1cnn(-c2ccccc2Cl)c1-c1ccc(F)cc1)c1cccnc1C(F)F [Example 83]
Return: 2.66^[a]

Enquiry: // lookup LogP for CC(C)n1ncc(NC(=O)c2ccc(Cl)nc2C(F)F)c1C1CC1 [Example 43]
Return: 2.33^[a]

Enquiry: // lookup LogP for Cc1ccccc1-n1ncc(NC(=O)c2cccnc2C(F)F)c1C(F)F [Example 27]
Return: 2.37^[a]

Enquiry: // lookup LogP for Cc1cnc(C(F)F)c(C(=O)Nc2cnn(-c3ccccc3)c2C#N)c1 [Example 166]
Return: 2.51^[a]

----------
Entries and their measured LogP follow.
assay: Log P by HPLC on reversed phase, method [a], acidic range (0.1% formic acid); assay type: physicochemical; conditions: LC-UV, 0.1% formic acid in water and acetonitrile

> print(dat)
                                   compound  measurement.name    result
1  O=C(Nc1cnn(-c2ccccc2C(F)(F)F)c1C(F)F)c1cccnc1C(F)F [Example 31]              LogP  2.51^[a]
2  Cc1ccc(-n2ncc(NC(=O)c3cc(C)cnc3C(F)F)c2C(C)C)cc1 [Example 208]              LogP  2.73^[a]
3  O=C(Nc1cnn(-c2ccccc2C(F)(F)F)c1-c1ccccc1)c1cccnc1C(F)F [Example 129]              LogP  2.70^[a]
4  Cc1c(NC(=O)c2cccnc2C(F)F)cnn1-c1ccc(Cl)cc1 [Example 46]              LogP  2.25^[a]
5  CCCCn1ncc(NC(=O)c2cccnc2C(F)F)c1CC [Example 122]              LogP  2.00^[a]

Enquiry: // lookup LogP for Cc1c(NC(=O)c2cccnc2C(F)F)cnn1CCC(C)C [Example 2]
Return: 2.01^[a]

Enquiry: // lookup LogP for Cc1ccc(-n2ncc(NC(=O)c3cccnc3C(F)F)c2C)cc1 [Example 112]
Return: 2.10^[a]

Enquiry: // lookup LogP for O=C(Nc1cnn(-c2ccc(C(F)(F)F)cc2)c1C(F)(F)F)c1cccnc1C(F)F [Example 50]
Return: 3.21^[a]

Enquiry: // lookup LogP for COc1c(NC(=O)c2cccnc2C(F)F)cnn1-c1ccccc1Cl [Example 215]
Return: 1.85^[a]

Enquiry: // lookup LogP for CCc1c(NC(=O)c2cc(C)cnc2C(F)F)cnn1-c1ccc(C(F)(F)F)cc1 [Example 240]
Return: 3.00^[a]

Enquiry: // lookup LogP for CC(C)n1ncc(NC(=O)c2cccnc2C(F)F)c1C1CC1 [Example 14]
Return: 1.68^[a]

----------
test: Log P by HPLC on reversed phase, method [a], acidic range (0.1% formic acid); type: physicochemical; details: LC-UV, 0.1% formic acid in water and acetonitrile
MEASUREMENT NAME: LogP

Worked examples follow.
> print(dat)
                                    compound  measurement.name    result
 1  CCc1c(NC(=O)c2cccnc2C(F)F)cnn1-c1ccccc1 [Example 119]              LogP  2.01^[a]
 2  Cc1nn(-c2ccccc2)c(C)c1NC(=O)c1cccnc1C(F)F [Example 17]              LogP  1.81^[a]
 3  COc1c(NC(=O)c2cccnc2C(F)F)cnn1-c1ccc(Cl)cc1 [Example 218]              LogP  2.32^[a]
 4  CCc1c(NC(=O)c2cccnc2C(F)F)cnn1CCC(C)C [Example 124]              LogP  2.32^[a]
 5  Cc1ccccc1-n1ncc(NC(=O)c2cccnc2C(F)F)c1C(C)C [Example 106]              LogP  2.37^[a]
 6  Cc1ccc(C)c(-n2ncc(NC(=O)c3ccc(Cl)nc3C(F)F)c2C)c1 [Example 45]              LogP  2.88^[a]
 7  CCc1c(NC(=O)c2cccnc2C(F)F)cnn1-c1cccc(Cl)c1 [Example 107]              LogP  2.48^[a]
 8  CCc1c(NC(=O)c2cccnc2C(F)F)cnn1-c1ccc(Cl)cc1 [Example 105]              LogP  2.48^[a]
 9  O=C(Nc1cnn(-c2ccc(Cl)cc2)c1-c1ccccc1)c1cccnc1C(F)F [Example 198]              LogP  2.99^[a]
10  O=C(Nc1cnn(-c2ccc(Cl)cc2)c1-c1ccc(F)cc1)c1cccnc1C(F)F [Example 187]              LogP  3.10^[a]

Enquiry: // lookup LogP for COc1cnc(C(F)F)c(C(=O)Nc2cnn(-c3cccc(Cl)c3Cl)c2C(F)(F)F)c1 [Example 165]
Return: 3.37^[a]

Enquiry: // lookup LogP for O=C(Nc1cnn(-c2ccc(Br)cc2)c1-c1ccc(Cl)cc1)c1cccnc1C(F)F [Example 200]
Return: 3.46^[a]

Enquiry: // lookup LogP for Cc1cnc(C(F)F)c(C(=O)Nc2cnn(-c3ccc(OC(F)(F)F)cc3)c2C)c1 [Example 241]
Return: 2.86^[a]

Enquiry: // lookup LogP for O=C(Nc1cnn(-c2ccc(Cl)cc2)c1OCC(F)(F)F)c1cccnc1C(F)F [Example 221]
Return: 2.88^[a]

Enquiry: // lookup LogP for CCCc1ccc(-n2ncc(NC(=O)c3cccnc3C(F)F)c2C(F)(F)F)cc1 [Example 229]
Return: 3.59^[a]

Enquiry: // lookup LogP for CCc1c(NC(=O)c2cc(C)cnc2C(F)F)cnn1-c1cccc(C(F)(F)F)c1 [Example 239]
Return: 2.94^[a]

Enquiry: // lookup LogP for Cc1cnc(C(F)F)c(C(=O)Nc2cnn(-c3ccccc3Cl)c2C)c1 [Example 69]
Return: 2.17^[a]

Enquiry: // lookup LogP for O=C(Nc1cnn(-c2ccc(Oc3ccc(Cl)cc3)cc2)c1C(F)(F)F)c1cccnc1C(F)F [Example 244]
Return: 4.11^[a]

Enquiry: // lookup LogP for O=C(Nc1cnn(-c2ccc(Cl)cc2)c1C(F)(F)F)c1cccnc1C(F)F [Example 10]
Return: 3.02^[a]

Enquiry: // lookup LogP for Cc1cnc(C(F)F)c(C(=O)Nc2cnn(-c3cc(Cl)ccc3Cl)c2C(F)(F)F)c1 [Example 175]
Return: 3.39^[a]

Enquiry: // lookup LogP for O=C(Nc1cnn(-c2cccc(Cl)c2Cl)c1C(F)(F)F)c1ccc(Cl)nc1C(F)F [Example 163]
Return: 3.71^[a]

Enquiry: // lookup LogP for O=C(Nc1cnn(-c2ccc(C(F)(F)F)cc2)c1-c1cccc(Cl)c1)c1cccnc1C(F)F [Example 55]
Return: 3.58^[a]

Enquiry: // lookup LogP for CCc1c(NC(=O)c2cccnc2C(F)F)cnn1-c1ccccc1Cl [Example 110]
Return: 2.17^[a]

Enquiry: // lookup LogP for O=C(Nc1cnn(-c2ccccc2F)c1-c1cccc(Cl)c1)c1cccnc1C(F)F [Example 57]
Return: 2.75^[a]

Enquiry: // lookup LogP for O=C(Nc1cnn(-c2ccccc2C(F)(F)F)c1-c1cccc(F)c1)c1cccnc1C(F)F [Example 131]
Return: 2.80^[a]
